target: HLA-B*48:01; test: IEDB peptide-MHC binding, purified MHC/competitive/fluorescence; filed as Kd, often an IC50 or EC50 that approximates it; bounds were set here for any values at or beyond the usual limits of such assays; conditions: source organism: Dengue virus 2 Thailand/NGS-C/1944
PROPERTY NAME: Kd

Requested read-out: Kd. Entry: KRAAAGIMK
≥ 20 µM

* * *

biological target: HLA-A*11:01; assay: IEDB peptide-MHC binding, purified MHC/competitive/radioactivity; filed as Kd, often an IC50 or EC50 that approximates it; bounds were set here for any values at or beyond the usual limits of such assays; details: source organism: Mammarenavirus brazilense
PROPERTY NAME: pKd
// pKd: -log10(molar conc.)

Requested read-out: pKd. Entry: FKVAFSKHYK
5.67

* * *

target: HLA-A*68:02; test: IEDB peptide-MHC binding, purified MHC/competitive/fluorescence; filed as Kd, often an IC50 or EC50 that approximates it; bounds were set here for any values at or beyond the usual limits of such assays; settings: source organism: Escherichia coli O157:H7 str. Sakai
pKd: −log10 of the molar value.
PROPERTY NAME: pKd

Requested read-out: pKd. Entry: HQIWLALRY
≤ 4.70

* * *

molecular target: HLA-A*29:02; assay: IEDB peptide-MHC binding, purified MHC/competitive/radioactivity; filed as Kd, often an IC50 or EC50 that approximates it; bounds were set here for any values at or beyond the usual limits of such assays; settings: source organism: SARS coronavirus Tor2
Assignment: determine reported log10(Kd) for the given sequences.
// units: nM (pre-log); metric: Kd; scale: log10

Requested read-out: log10(Kd). Entry: LVAEMDGIQY
2.01

Requested read-out: log10(Kd). Entry: YIAVNDKALY
0.94

Requested read-out: log10(Kd). Entry: CFANKHAGF
1.46

Requested read-out: log10(Kd). Entry: ATSRTLSYY
1.08

Requested read-out: log10(Kd). Entry: LYDANYFVCW
3.16

Requested read-out: log10(Kd). Entry: HFAIGLALY
0.67

Requested read-out: log10(Kd). Entry: PYRVVVLSF
4.06

Requested read-out: log10(Kd). Entry: ADAGFMKQY
4.18

Requested read-out: log10(Kd). Entry: MFSPIVPFW
1.98

Requested read-out: log10(Kd). Entry: VMPLSAPTL
3.85

Requested read-out: log10(Kd). Entry: LFADINGKL
2.67

Requested read-out: log10(Kd). Entry: SWFITQRNFF
1.73

Requested read-out: log10(Kd). Entry: GTDLEGKFY
2.44

Requested read-out: log10(Kd). Entry: GYVTHGFNL
2.92

Requested read-out: log10(Kd). Entry: VFYLYLTFYF
-1.38

* * *

molecular target: HLA-A*24:02; experiment: IEDB peptide-MHC binding, purified MHC/competitive/radioactivity; filed as Kd, often an IC50 or EC50 that approximates it; bounds were set here for any values at or beyond the usual limits of such assays; conditions: source organism: Mammarenavirus machupoense
PROPERTY NAME: pKd
// pKd: -log10(molar conc.)

Requested read-out: pKd. Entry: EYFMCFKYLL
6.72

* * *

biological target: HLA-B*35:01; assay: IEDB peptide-MHC binding, purified MHC/competitive/fluorescence; filed as Kd, often an IC50 or EC50 that approximates it; bounds were set here for any values at or beyond the usual limits of such assays; settings: source organism: Bacillus anthracis str. A0488
PROPERTY NAME: Kd (nM)
Return type: number; implicit unit nM.

Requested read-out: Kd. Entry: IVVDNTSAF
0.4

* * *

molecular target: HLA-B*57:01; assay: IEDB peptide-MHC binding, purified MHC/direct/fluorescence; filed as Kd, often an IC50 or EC50 that approximates it; bounds were set here for any values at or beyond the usual limits of such assays; details: source organism: Vibrio cholerae V52
pKd: −log10 of the molar value.
PROPERTY NAME: pKd

Requested read-out: pKd. Entry: LPYPVLLKI
≤ 4.70

* * *

biological target: HLA-A*02:06; assay: IEDB peptide-MHC binding, purified MHC/competitive/radioactivity; filed as Kd, often an IC50 or EC50 that approximates it; bounds were set here for any values at or beyond the usual limits of such assays; conditions: source organism: Mammarenavirus machupoense
PROPERTY NAME: pKd
// pKd: -log10(molar conc.)

Requested read-out: pKd. Entry: LNKSDSSWAV
5.66

* * *

biological target: HLA-B*53:01; experiment: IEDB peptide-MHC binding, purified MHC/competitive/fluorescence; filed as Kd, often an IC50 or EC50 that approximates it; bounds were set here for any values at or beyond the usual limits of such assays; settings: source organism: Giardia lamblia ATCC 50803
PROPERTY NAME: Kd

Give Kd (HLA-B*53:01) of the following sequence: MTFPLHFRS
≥ 5 µM

* * *

molecular target: HLA-A*02:02; assay: IEDB peptide-MHC binding, purified MHC/competitive/radioactivity; filed as Kd, often an IC50 or EC50 that approximates it; bounds were set here for any values at or beyond the usual limits of such assays; details: source organism: Vaccinia virus WR
PROPERTY NAME: pKd
// pKd: -log10(molar conc.)

Requested read-out: pKd. Entry: ILFQNNDINA
7.63

Requested read-out: pKd. Entry: LISFFGLFDI
7.12

Requested read-out: pKd. Entry: LMDSIFVSTM
8.44

Requested read-out: pKd. Entry: PLISILMIFI
6.36

Requested read-out: pKd. Entry: SMYTRLRQDT
5.18

Requested read-out: pKd. Entry: IVFGIYKDNL
6.73

Requested read-out: pKd. Entry: FAISYCRAFI
6.98

Requested read-out: pKd. Entry: FVATFRDML
5.63

Requested read-out: pKd. Entry: VAMLLTHGA
5.15

Requested read-out: pKd. Entry: YMVTDKTAYI
9.65

Requested read-out: pKd. Entry: ITLVVISVI
4.82

Requested read-out: pKd. Entry: PTEMVDVSMM
4.94

Requested read-out: pKd. Entry: TLNTLITLI
9.00

Requested read-out: pKd. Entry: LVSDCASTI
7.31

Requested read-out: pKd. Entry: VVYHDDDNTT
5.73

Requested read-out: pKd. Entry: IITILQDIV
6.08

Requested read-out: pKd. Entry: KIMEIVSHL
7.10

Requested read-out: pKd. Entry: CTINVNSLAL
6.31

Requested read-out: pKd. Entry: LALKNSQAEL
6.13

Requested read-out: pKd. Entry: KTSTLIFFV
8.86

Requested read-out: pKd. Entry: NTFVNFNSV
5.30

Requested read-out: pKd. Entry: MMNERDVSV
9.36

Requested read-out: pKd. Entry: FLDWIKDIM
9.11

Requested read-out: pKd. Entry: NASKTINALV
6.12

Requested read-out: pKd. Entry: ELIDVLKTRL
6.58

Requested read-out: pKd. Entry: GIIITVGMLI
5.45

Requested read-out: pKd. Entry: SLTQVKELGI
8.01

Requested read-out: pKd. Entry: YLLMHLVSL
9.76

Requested read-out: pKd. Entry: MIHKTYIDV
5.85

Requested read-out: pKd. Entry: TAIRAGYSIV
5.17

Requested read-out: pKd. Entry: NAILHNIYRL
5.25

Requested read-out: pKd. Entry: HTYHLENDKI
5.75

Requested read-out: pKd. Entry: IQKDINITHT
5.87

Requested read-out: pKd. Entry: VQEFIFSAL
6.38

* * *

target: HLA-B*18:01; experiment: IEDB peptide-MHC binding, purified MHC/direct/fluorescence; filed as Kd, often an IC50 or EC50 that approximates it; bounds were set here for any values at or beyond the usual limits of such assays; settings: source organism: Yellow fever virus 17D
pKd: −log10 of the molar value.
PROPERTY NAME: pKd

Give pKd (HLA-B*18:01) of the following sequence: CRTAFKPVL
≤ 4.70

* * *

target: HLA-B*08:01; assay: IEDB peptide-MHC binding, purified MHC/competitive/radioactivity; filed as Kd, often an IC50 or EC50 that approximates it; bounds were set here for any values at or beyond the usual limits of such assays; settings: source organism: Dengue virus 4 Philippines/H241/1956
PROPERTY NAME: Kd (nM)
Return type: number; implicit unit nM.

Requested read-out: Kd. Entry: MLLVLCAGQL
822

Requested read-out: Kd. Entry: ILRNPGFALL
8670

Requested read-out: Kd. Entry: MPPLRFLGE
2570

* * *

target: HLA-A*02:01; experiment: IEDB peptide-MHC binding, purified MHC/direct/fluorescence; filed as Kd, often an IC50 or EC50 that approximates it; bounds were set here for any values at or beyond the usual limits of such assays; settings: source organism: Listeria monocytogenes serotype 4b str. H7858
PROPERTY NAME: Kd (nM)
Return type: number; implicit unit nM.

Requested read-out: Kd. Entry: AALEGLSGF
1900

The measured values listed here are drawn from the Immune Epitope Database (IEDB).
